# Tested on: oat, wild (wild oat, Avena fatua)
# ASSAY_DETAILS: Test C greenhouse herbicide test, postemergence
# Type: in vivo
# EXPERIMENTAL_PARAMETERS: Postemergence, 250 g ai/ha; scale 0 to 100, 0 no effect, 100 complete control; 13 to 15 d
MEASURE: Plant response rating, Oat, Wild
Please reply with the number alone, leaving off any unit.

Examples with answers:
# STRUCTURE_STRING, Plant response rating, Oat, Wild
measured = [
    ("CC(=O)Oc1c(C)nn(C)c(=O)c1-c1c(C)sc2ccc(C)cc12", 95),
    ("COC(=O)Oc1c(Br)nn(C)c(=O)c1-c1c(C)ccc2ccccc12", 90),
    ("CC(=O)Oc1c(C)nn(C)c(=O)c1-c1c(C)cc(C)c2ccccc12", 95),
    ("CCCC(=O)Oc1c(C)nn(C)c(=O)c1-c1c(C)sc2c(C)cc(C)cc12", 90),
    ("CCC(=O)Oc1c(C)nn(C)c(=O)c1-c1c(C)sc2ccc(C)cc12", 95),
    ("CCC(=O)Oc1c(C)nn(C)c(=O)c1-c1c(C)sc2c(C)cc(C)cc12", 100),
    ("CCOC(=O)Oc1c(C)nn(C)c(=O)c1-c1c(C)sc2c(C)cc(C)cc12", 95),
]

# evaluate next
Task: Could you tell me which Plant response rating, Oat, Wild is on file for COC(=O)Oc1c(C)nn(C)c(=O)c1-c1c([N+](=O)[O-])ccc2ccccc12 ?
Output: 70
